# Assay Target: T1, recombinant human IL-6 (human, UniProt P05231 30-212)
# T1 construct: Flowed in solution over the captured antibodies
# T1 sequence (P05231 30-212 limits assumed): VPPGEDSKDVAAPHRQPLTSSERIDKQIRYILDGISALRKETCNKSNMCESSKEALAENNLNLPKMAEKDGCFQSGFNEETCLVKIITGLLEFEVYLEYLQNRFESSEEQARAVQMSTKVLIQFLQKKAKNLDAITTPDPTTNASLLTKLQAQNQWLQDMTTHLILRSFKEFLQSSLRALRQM
# Test Method Notes: SPR (Biacore), supernatant IgG on Protein A, 25 C
Quantity Name: kon (M⁻¹ s⁻¹)

INSERT INTO measurements (binder, quantity_name, quantitative_result) VALUES
  ('anti-IL-6 antibody, heavy chain G26R, light chain WT (antibody, IgG1, V domains shown, Full IgG1 tested; V domains derived as in m2) VH: EVQLVESGGGLVQPGGSLRLSCAASRFTFSPFAMSWVRQAPGKGLEWVAKISPGGSWTYYSDTVTGRFTFSLDTSKSTAYLQMNSLRAEDTAVYYCARQLWGYYALDIWGQGTLVTVSS VL: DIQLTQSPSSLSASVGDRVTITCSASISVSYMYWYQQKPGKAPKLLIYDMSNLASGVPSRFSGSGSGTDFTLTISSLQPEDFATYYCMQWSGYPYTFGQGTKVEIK', 'kon', 402000);

Measured values drawn from patent US20240209076A1 for this set.
